B1: tRNA (parent)
chain: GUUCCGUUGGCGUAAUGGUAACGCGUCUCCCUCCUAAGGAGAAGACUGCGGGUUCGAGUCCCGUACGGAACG

Variants of: B1
procedure.text: yeast fitness relative to wild type (ratio to wild type); higher = fitter; tRNA-Arg(CCU), competitive growth, 37 C, YPD
Variants at the floor of the assay were thinned out.
endpoint.name: yeast fitness
// keep it numeric: no unit symbol after the value

These recorded examples may help you get a feel for the data.
> print(dat)
                                   sequence  obs.value
1  GUUCCGUUGGUGUAAUGGUAACGCGUCUCCCUCCUAAGGAGAAAACUGCGGGUUCGAGUCCCGUACGGAACG [C11U G44A]       1.03
2  GUUCCGUUGGCGUGAUGGUAACGCGUCUCCCUCCUCAGGAGAAGACUGCGGGUUCGAGUCCCGUACGGAACG [A14G A36C]      0.561
3  GUUCCGUUGGCGUAAUGGUAACGCGUCUCCCUCCUGAGCAGAAGACUGUGGGUGCGAGUCCCGUACGGAACG [A36G G39C C49U U54G]       0.58
4  GUUCCGUUGGCGUAAUGGUAACGUGACGCCCUCCUAAGGAGAAGACUGCGGGUUCGAGUCCCGUACGGAACG [C24U U26A U28G]      0.506
5  GUUCCGUUGGCGUAAUGGUAACGCGUCUCCCUCCUAAGGAGAAGACUGCGGAUUCGAGUCUCGUACGAAACG [G52A C61U G68A]      0.561

Quick one: give measured yeast fitness for GUCCCGUUGGCGUAAUGCUAACGCGUCUCCGUCCUAAGGAGAAGACUGCGGGUUCGAGUCACGUACGGAACG [U3C G18C C31G C61A]
0.535

Name the recorded yeast fitness of the item GUUCCGUUGGCGUAAUGGUAACGCGUCUCCCUCCUAAGGAGAACACUGCAGGUUCGAGUCCCGUACGGUACG [G44C G50A A69U] in your answer.
0.63
